# credit: ChEMBL document CHEMBL2406989

Catalogue of molecules with associated inhibition
target: Histone deacetylase (Homo sapiens) (UniProt Q13547+O15379+Q9UBN7+Q92769+Q9UQL6+Q8WUI4+Q9BY41+Q96DB2+P56524+Q9UKV0+Q969S8); settings: HeLa, at 1 µM;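 also: fluorometric readout of HDAC activity in HeLa cell extract with a Fluor de Lys substrate, 15 min incubation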
Description: Inhibition of HDAC in human HeLa cell extract using fluor de Lys as substrate at 1 uM after 15 mins by fluorometric analysis
Write down the numeric answer in % and omit the unit.

Example cases with answers are listed next.
molecule: CN1C(=O)C(NC(=O)CCCCCCCC(=O)NO)N=C(c2ccccc2)c2ccccc21 (racemic)
metric: inhibition
result value: 57
//
molecule: CN1C(=O)C(NC(=O)CCCCCC(=O)NO)N=C(c2ccccc2)c2ccccc21 (racemic)
metric: inhibition
result value: 73
//
molecule: C[C@@H]1N=C(c2ccccc2)c2cc(C#CCCCC(=O)NO)ccc2NC1=O
metric: inhibition
result value: 65

Query: Look up inhibition for this molecule: CN1C(=O)CN=C(c2ccccc2)c2cc(C#CCCCCC(=O)NO)ccc21
Response: 36

Query: And the next one, CN1C(=O)[C@H](NC(=O)CCCCCCC(=O)NO)N=C(c2ccccc2)c2ccccc21 ?
Response: 73

Query: Request: CN1C(=O)[C@@H](NC(=O)CCCCCCC(=O)NO)N=C(c2ccccc2)c2ccccc21
Response: 88

Query: Would you mind doing CN1C(=O)CN=C(c2ccccc2)c2cc(C#CCCCC(=O)NO)ccc21 as well?
Response: 39

Query: # repeat for O=C(CCCCCCC(=O)N1CCN=C(c2ccccc2)c2ccccc21)NO
Response: 82

Query: Would you kindly repeat that for CN1C(=O)CN=C(c2ccccc2)c2cc(C#C/C=C/C(=O)NO)ccc21 ?
Response: 82

Query: What about CN1C(=O)C(NC(=O)CCCCC(=O)NO)N=C(c2ccccc2)c2ccccc21 (racemic) ?
Response: 70

Query: What do we get for CN1C(=O)CN=C(c2ccccc2)c2cc(C#CCCC(=O)NO)ccc21 ?
Response: 22

---

Quick reference for IC50 among some compounds
biological target: Protein deacetylase HDAC6 (Homo sapiens, UniProt Q9UBN7); experiment: Inhibition of full length His-tagged human recombinant HDAC6 expressed in baculovirus system using fluor de Lys as substrate by fluorometric analysis
Sequence (Q9UBN7 whole entry): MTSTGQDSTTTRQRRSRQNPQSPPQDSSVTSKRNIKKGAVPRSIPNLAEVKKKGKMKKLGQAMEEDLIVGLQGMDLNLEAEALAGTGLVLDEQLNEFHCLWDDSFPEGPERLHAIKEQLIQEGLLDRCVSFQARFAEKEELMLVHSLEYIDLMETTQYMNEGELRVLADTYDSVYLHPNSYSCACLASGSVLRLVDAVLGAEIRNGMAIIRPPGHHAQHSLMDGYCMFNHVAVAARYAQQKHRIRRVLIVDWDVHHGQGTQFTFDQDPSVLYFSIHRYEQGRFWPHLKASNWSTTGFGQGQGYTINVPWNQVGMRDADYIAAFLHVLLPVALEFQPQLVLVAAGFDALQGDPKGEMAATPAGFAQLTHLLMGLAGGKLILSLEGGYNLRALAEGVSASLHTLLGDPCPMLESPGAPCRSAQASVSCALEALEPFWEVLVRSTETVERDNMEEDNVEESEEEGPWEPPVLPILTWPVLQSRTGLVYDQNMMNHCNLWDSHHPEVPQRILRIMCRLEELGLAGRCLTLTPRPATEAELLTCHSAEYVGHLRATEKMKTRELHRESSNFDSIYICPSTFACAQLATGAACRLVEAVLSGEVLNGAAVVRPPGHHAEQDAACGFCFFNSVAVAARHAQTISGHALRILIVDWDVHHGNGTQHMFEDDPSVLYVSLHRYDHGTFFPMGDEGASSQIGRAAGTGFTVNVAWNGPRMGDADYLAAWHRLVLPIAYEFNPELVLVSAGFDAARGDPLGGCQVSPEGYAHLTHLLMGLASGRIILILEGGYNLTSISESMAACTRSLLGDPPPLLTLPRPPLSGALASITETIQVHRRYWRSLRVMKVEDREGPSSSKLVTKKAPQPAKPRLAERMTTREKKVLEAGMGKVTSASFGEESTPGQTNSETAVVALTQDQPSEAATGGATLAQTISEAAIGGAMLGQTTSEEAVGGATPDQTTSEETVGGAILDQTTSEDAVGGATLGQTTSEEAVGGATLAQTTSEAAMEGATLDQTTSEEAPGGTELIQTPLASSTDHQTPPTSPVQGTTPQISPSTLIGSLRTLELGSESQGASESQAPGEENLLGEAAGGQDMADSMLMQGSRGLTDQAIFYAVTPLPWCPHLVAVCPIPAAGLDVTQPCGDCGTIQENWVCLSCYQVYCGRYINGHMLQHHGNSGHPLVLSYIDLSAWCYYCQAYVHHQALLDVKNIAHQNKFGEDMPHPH

compound: CN1C(=O)C(N)N=C(c2ccccc2)c2cc(C#CCCCC(=O)NO)ccc21 (racemic)
IC50: > 100 µM
--
compound: CN1C(=O)C(NC(=O)CCCCC(=O)NO)N=C(c2ccccc2)c2ccccc21 (racemic)
IC50: > 100 µM

API: the following record is the query input.
Query: Give the measured IC50 of CN1C(=O)CN=C(c2ccccc2)c2cc(C#CCCC(=O)NO)ccc21 .
Response: > 100 µM
